Please go through the items and note down their pEC50.
biological target: hGLP-1R (Homo sapiens, UniProt P43220); test: Functional cAMP activity in the presence of 1% HSA; assay type: cell-based; conditions: read-out: cAMP Rel EC50, hGLP-1R
Sequence (P43220 24-463): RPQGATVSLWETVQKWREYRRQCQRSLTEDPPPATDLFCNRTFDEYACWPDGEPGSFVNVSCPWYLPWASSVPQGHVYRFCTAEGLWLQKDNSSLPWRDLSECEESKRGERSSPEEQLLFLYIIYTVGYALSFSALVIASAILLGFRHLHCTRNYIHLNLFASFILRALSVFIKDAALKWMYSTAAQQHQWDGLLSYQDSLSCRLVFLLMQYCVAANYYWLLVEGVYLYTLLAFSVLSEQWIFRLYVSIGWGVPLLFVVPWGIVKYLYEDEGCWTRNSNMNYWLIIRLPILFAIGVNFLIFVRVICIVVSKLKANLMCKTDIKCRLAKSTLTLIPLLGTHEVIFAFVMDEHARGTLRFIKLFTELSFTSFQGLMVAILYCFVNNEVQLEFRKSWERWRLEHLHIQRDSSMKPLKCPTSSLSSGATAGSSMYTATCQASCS
Starred links: 1 amine or outer side, 2 acyl side, 3 side chain; linkers in the order of their positions; H or OH if unused. Non-standard residues stand in square brackets, D forms with d. Groups on a side chain read outwards from the residue. No end group written: not given here. *: point of attachment. C18 diacid = O=C(O)CCCCCCCCCCCCCCCCC(=O)*; αMePhe(2-F) = C[C@](N)(Cc1ccccc1F)C(=O)O; γGlu = O=C(O)[C@H](CCC(=O)[*:2])N[*:1]; αMe4Pal = C[C@](N)(Cc1ccncc1)C(=O)O; αMeY = C[C@](N)(Cc1ccc(O)cc1)C(=O)O; 4Pal = N[C@@H](Cc1ccncc1)C(=O)O; αMeL = CC(C)C[C@](C)(N)C(=O)O; αMeS = C[C@](N)(CO)C(=O)O; Orn = NCCC[C@H](N)C(=O)O; AEEA = NCCOCCOCC(=O)O; Aib = CC(C)(N)C(=O)O
Field pEC50 (float): negative decimal logarithm of the concentration in molar.

## Input Reported pEC50, substance H-Y[Aib]QGTFTSDFS[Orn][αMeL]LDKK([AEEA-γGlu-C18 diacid])AQ[Aib]AFIEYLLE[dA]GHSSGAPPPSGE-NH2 [Example 207] : ____
## Output 6.65

## Input Reported pEC50, substance H-Y[Aib]QGTFTSD[4Pal]SK[αMeL]LDKK([AEEA-γGlu-C18 diacid])AQ[Aib]AFIEYLIA[Aib]GESSGAPPPSGS-NH2 [Example 285] : ____
## Output 6.44

## Input Reported pEC50, substance H-Y[Aib]QGT[αMePhe(2-F)]TSD[4Pal][αMeS]I[αMeL]LD[Orn]K([AEEA-γGlu-γGlu-C18 diacid])AQ[αMe4Pal]EFI[dE][αMeY]LIEGGPSSGAPPPSGE-NH2 [Example 1176] : ____
## Output 7.36

## Input Reported pEC50, substance Y[Aib]QGT[αMePhe(2-F)]TSD[4Pal]SI[αMeL]LD[Orn]K([AEEA-γGlu-C18 diacid])AQ[αMe4Pal][Orn]FI[dE][αMeY]LIEGGPSSGEPPPEGT[dE]-NH2 [Example 691] : ____
## Output 7.54

## Input Reported pEC50, substance H-Y[Aib]QGT[αMePhe(2-F)]TSD[4Pal]SI[αMeL]LD[Orn]K([AEEA-γGlu-C18 diacid])AQ[αMe4Pal][Orn]FI[dE][αMeY]LIEGGPSSGEPPPEGTGE-NH2 [Example 680] : ____
## Output 7.54
